Sourced from PubChem BioAssay (NCI)

test system: IGROV1 ovarian; experiment: NCI-60 one-dose screen, 48 h; conditions: 10 µM unless noted
The panel holds about 83,000 compounds, 20% with a hit somewhere; the sample as a whole holds those more often. The source made the active and inactive calls. How the source made its calls: active means growth percent below 10; inactive means the rest.
Outcomes: active, inactive

| COMPOUND | ASSIGNED_CATEGORY |
| --- | --- |
| NCCN1CCN(c2nc(-c3ccccc3)nc3nc(-c4ccccc4)oc23)CC1 | active |
| O=C(/C=C1\C=CN(CCCCO)c2ccccc21)n1ccc2ccccc21 | inactive |
| O=C(CCCCCCN1CC(=O)N2[C@@H](c3cccc(Cl)c3)c3[nH]c4ccccc4c3C[C@H]2C1=O)NO | active |
| Cc1cc(F)cc(NS(=O)(=O)c2ccc(-c3cnc(C4CC4)o3)cc2)c1 | inactive |
| CS(=O)(=O)c1nccc(-c2c(-c3ccc(F)c(OCc4ccccc4)c3)nc3sccn23)n1 | inactive |
| CN(c1ccc(Br)cc1)S(=O)(=O)c1ccc(-c2cnc(C3CC3)o2)cc1 | inactive |
| Oc1ccc(CSc2nnc(-c3cnccn3)n2-c2ccccc2)c2cccnc12 | inactive |
| COc1ccc([C@H]2[C@H](O)C(=O)N2c2cc(OC)c(OC)c(OC)c2)cc1Cl | inactive |
| O=C(Nc1cccc(-c2nc(-c3ccc(NC(=O)c4cccs4)cc3Cl)no2)c1)Nc1ccc(NC(=O)C2CC2)c(C(F)(F)F)c1 | active |
| CCN1CCN(Cc2ccc(C(=O)Nc3nc4ccc(Oc5ccnc(C(=O)NC)c5)cc4s3)cc2C(F)(F)F)CC1 | inactive |
| O=C1Nc2ccc(Br)cc2/C1=N\c1nnc(-c2ccc(Cl)cc2)o1 | inactive |
| CCNCCCn1c2c(c3cc(OC)c(OC)cc3c1=O)C(=O)c1cc(OC)cnc1-2 | inactive |
| CS(=O)c1nccc(-c2c(-c3ccc(F)c(OCCc4ccc(F)cc4)c3)nc3sccn23)n1 (stereo unspecified) | active |
| CC(C)=CCc1c(O)c(CC=C(C)C)c2c(c1O)C(=O)C1=C[C@@H]3C[C@H]4C(C)(C)O[C@@](C/C=C(\C)C(=O)O)(C3=O)[C@@]14O2 | active |
| CC(C)C[C@H]1C(=O)O[C@H](C(C)C)C(=O)N(C)[C@@H](C(C)C)C(=O)O[C@H](C(C)C)C(=O)N(C)[C@@H](C(C)C)C(=O)O[C@H](C(C)C)C(=O)N1C | inactive |
| Nc1ccc(-c2nnc(SCc3ccc(O)c4ncccc34)n2-c2ccccc2)cc1 | inactive |
